Measured Vd, listed per entry.
# METHOD SUMMARY: Volume of distribution at steady state in CD1 mouse at 3 mg/kg, iv
# Type: ADME, organism-based
# CONDITION: in vivo, read-out: Vdss
# output: bare number, implied unit L/kg

Known results for compounds:
1. C=C(F)C(=O)N1CCN(c2nc(OC[C@@H]3CCCN3C)nc3c2CCN(c2cccc4cccc(Cl)c24)C3)C[C@@H]1CC#N
2.02
2. C=CC(=O)N1CCN(c2nc(OC[C@@H]3CCCN3C)nc3c2CCN(c2cccc4cccc(Cl)c24)C3)C[C@@H]1CC#N
0.867
3. C=CC(=O)N1CCN(c2nc(OC[C@@H]3CCCN3C)nc3c2CCN(c2cccc4ccccc24)C3)CC1
0.996

Reported Vd of C=CC(=O)N1CCN(c2nc(OC[C@@H]3CCCN3C)nc3c2CCN(c2cccc4cccc(C)c24)C3)C[C@@H]1CC#N : 1.91

###

# METHOD SUMMARY: Protein binding in mouse plasma
# Type: ADME, cell-free
# CONDITION: read-out: PPB (converted)
READOUT TYPE: fraction unbound
The answer should be a number; do not append a unit.

1. C=C(F)C(=O)N1CCN(c2nc(OC[C@@H]3CCCN3C)nc3c2CCN(c2cccc4cccc(Cl)c24)C3)C[C@@H]1CC#N
0.01

--- query ---
Given item C=CC(=O)N1CCN(c2nc(OC[C@@H]3CCCN3C)nc3c2CCN(c2cccc4ccccc24)C3)C[C@@H]1CC#N , the value recorded as its fraction unbound is 0.05

###

# METHOD SUMMARY: Half life in presence of GSH in phosphate buffer at 1 uM at 37 degC by LC-MS/M analysis
# Assay type: physicochemical
# CONDITION: phosphate buffer with GSH
Reported half-life at 1 µM values follow for various compounds
Provide the reading as a plain figure in min.

1. C=CC(=O)N1CCN(c2nc(OC[C@@H]3CCCN3C)nc3c2CCN(c2cccc4ccccc24)C3)C[C@H]1CC#N
60
2. C=CC(=O)N1CCN(c2nc(OC[C@@H]3CCCN3C)nc3c2CCN(c2cccc4ccccc24)C3)CC1
1020

In the following, a different compound is considered.
The compound C=CC(=O)N1CCN(c2nc(OC[C@@H]3CCCN3C)nc3c2CCN(c2cccc4ccccc24)C3)C[C@@H]1CC#N showed half-life at 1 µM equal to 240

###

# METHOD SUMMARY: Drug metabolism in mouse hepatocytes assessed as parent compound remaining at 10 uM incubated for 2 hrs by LC-MS analysis
# Format: ADME, cell-based, Hepatocyte
# CONDITION: read-out: Stability
READOUT TYPE: remaining at 2 h, 10 µM (%)
Please reply with the bare figure in % and do not write the unit itself.

Summary for this compound, C=CC(=O)N1CCN(c2nc(OC[C@@H]3CCCN3C)nc3c2CCN(c2cc(O)cc4ccccc24)C3)CC1 : remaining at 2 h, 10 µM is 4

###

# METHOD SUMMARY: Tmax in CD1 mouse at 30 mg/kg, po
# Format: ADME, organism-based
# CONDITION: in vivo
# Lookup of reported Tmax keyed by entry
Give your result in min as a bare value.

Known Tmax results, listed for orientation:
1) C=CC(=O)N1CCN(c2nc(OC[C@@H]3CCCN3C)nc3c2CCN(c2cccc4cccc(Cl)c24)C3)C[C@@H]1CC#N
15
2) C=C(F)C(=O)N1CCN(c2nc(OC[C@@H]3CCCN3C)nc3c2CCN(c2cccc4cccc(Cl)c24)C3)C[C@@H]1CC#N [ADAGRASIB]
60

// next entry
The compound listed as C=CC(=O)N1CCN(c2nc(OC[C@@H]3CCCN3C)nc3c2CCN(c2cccc4cccc(C)c24)C3)C[C@@H]1CC#N has a reported Tmax of 30

###

Form field: fraction unbound (one value per entry).
# METHOD SUMMARY: Protein binding in human plasma
# Format: ADME, cell-free
# CONDITION: read-out: PPB (converted)
Quick one: just the number, no unit, thanks!

1. C=C(F)C(=O)N1CCN(c2nc(OC[C@@H]3CCCN3C)nc3c2CCN(c2cccc4cccc(Cl)c24)C3)C[C@@H]1CC#N [ADAGRASIB]
0.017

Turning now to a further record.
So for C=CC(=O)N1CCN(c2nc(OC[C@@H]3CCCN3C)nc3c2CCN(c2cccc4ccccc24)C3)C[C@@H]1CC#N , the logged fraction unbound turned out to be 0.05

###

# METHOD SUMMARY: Cmax in CD1 mouse at 10 mg/kg, po
# Assay type: ADME, organism-based
# Parameters: dose 10 mg/kg, route oral
# CONDITION: in vivo
READOUT TYPE: Cmax (ng/mL)
Report the value in ng/mL with no unit label.

Value of Cmax reported for the molecule C=CC(=O)N1CCN(c2nc(OC[C@@H]3CCCN3C)nc3c2CCN(c2cccc4ccccc24)C3)CC1 is 131

###

# METHOD SUMMARY: in vivo
# CONDITION: beagle, dog, po, 30 mg/kg
READOUT TYPE: bioavailability (%)
Supply the numeric figure in %, leaving out any unit text.

Reported bioavailability for C=C(F)C(=O)N1CCN(c2nc(OC[C@@H]3CCCN3C)nc3c2CCN(c2cccc4cccc(Cl)c24)C3)C[C@@H]1CC#N was 25.9

###

# METHOD SUMMARY: Half life in CD1 mouse at 3 mg/kg, iv
# Format: ADME, organism-based
# CONDITION: in vivo
READOUT TYPE: half-life (h)
Give the value in h but do not write h after it.

Worked cases, answers included:
1) C=CC(=O)N1CCN(c2nc(OC[C@@H]3CCCN3C)nc3c2CCN(c2cccc4cccc(Cl)c24)C3)C[C@@H]1CC#N
0.496
2) C=CC(=O)N1CCN(c2nc(OC[C@@H]3CCCN3C)nc3c2CCN(c2cccc4ccccc24)C3)CC1
0.908
3) C=C(F)C(=O)N1CCN(c2nc(OC[C@@H]3CCCN3C)nc3c2CCN(c2cccc4cccc(Cl)c24)C3)C[C@@H]1CC#N
1.51

// below: half-life requested for another compound
Memo: C=CC(=O)N1CCN(c2nc(OC[C@@H]3CCCN3C)nc3c2CCN(c2cccc4cccc(C)c24)C3)C[C@@H]1CC#N , reported half-life: 1.33

###

# METHOD SUMMARY: Clearance in CD1 mouse at 3 mg/kg, iv
# Format: ADME, organism-based
# CONDITION: in vivo
The following compounds are listed with their measured clearance values.
Please state the figure in mL/min/kg; there is no need to write the unit.

Observe how each entry below is paired with its result.
1) C=C(F)C(=O)N1CCN(c2nc(OC[C@@H]3CCCN3C)nc3c2CCN(c2cccc4cccc(Cl)c24)C3)C[C@@H]1CC#N [ADAGRASIB]
19.9
2) C=CC(=O)N1CCN(c2nc(OC[C@@H]3CCCN3C)nc3c2CCN(c2cccc4cccc(Cl)c24)C3)C[C@@H]1CC#N
37.3

Proceed to the following item.
Memo: C=CC(=O)N1CCN(c2nc(OC[C@@H]3CCCN3C)nc3c2CCN(c2cccc4cccc(C)c24)C3)C[C@@H]1CC#N , reported clearance: 31.6

###

# METHOD SUMMARY: Half life in human whole blood at 5 uM by LC-MS/MS analysis
# Assay type: ADME, tissue-based
Readings of half-life at 5 µM for the listed compounds

1) C=C(OC)C(=O)N1CCN(c2nc(OC[C@@H]3CCCN3C)nc3c2CCN(c2cccc4cccc(Cl)c24)C3)C[C@@H]1CC#N
40 h
2) C=CC(=O)N1CCN(c2nc(OC[C@@H]3CCCN3C)nc3c2CCN(c2cccc4cccc(Cl)c24)C3)C[C@@H]1CC#N
14 h
3) C=C(F)C(=O)N1CCN(c2nc(OC[C@@H]3CCCN3C)nc3c2CCN(c2cccc4cccc(Cl)c24)C3)C[C@@H]1CC#N [ADAGRASIB]
> 50 h
4) COC/C=C/C(=O)N1CCN(c2nc(OC[C@@H]3CCCN3C)nc3c2CCN(c2cccc4cccc(Cl)c24)C3)C[C@@H]1CC#N
> 50 h

Next:
# half-life at 5 µM (compound: CN1CCC[C@H]1COc1nc2c(c(N3CCN(C(=O)/C=C/CF)[C@@H](CC#N)C3)n1)CCN(c1cccc3cccc(Cl)c13)C2 ) is > 50 h

###

# METHOD SUMMARY: Tmax in beagle dog at 30 mg/kg, po
# Type: ADME, organism-based, Canis lupus familiaris
# CONDITION: in vivo
READOUT TYPE: Tmax (h)
Use h as the unit, but write only the number.

Measured Tmax of C=C(F)C(=O)N1CCN(c2nc(OC[C@@H]3CCCN3C)nc3c2CCN(c2cccc4cccc(Cl)c24)C3)C[C@@H]1CC#N : 4

###

# METHOD SUMMARY: Tmax in rat at 30 mg/kg, po
# Format: ADME, organism-based
# CONDITION: in vivo
READOUT TYPE: Tmax (h)
Numeric only. Scale: h

Short answer for C=C(F)C(=O)N1CCN(c2nc(OC[C@@H]3CCCN3C)nc3c2CCN(c2cccc4cccc(Cl)c24)C3)C[C@@H]1CC#N : Tmax was 2.67

Values compiled from ChEMBL document CHEMBL4610106.
